# Tested on: SK-OV-3 ovarian
# Method: NCI tumour cell line growth inhibition, 48 h; in the data active means GI50 below about 0.43 µM; inactive means the rest
Response enum: active, inactive

IN: // outcome(item) with item = CCNNC(=O)[C@@H]1[C@H](c2cc(OC)c(OC)c(OC)c2)c2cc3c(cc2[C@H](O)[C@H]1CO)OCO3
OUT: active

IN: What did this assay record as the result for COc1cc(F)c(/C=C/c2cc(/C=C/c3cc(OC)c(OC)cc3F)n(-c3cc(F)cc(F)c3)n2)cc1OC ?
OUT: inactive

IN: Dear colleague, could you share the recorded outcome for NC(=O)c1ccccc1NC(=O)c1ccccc1Cl when you have a moment?
OUT: inactive

====

Record form. Attribute: TGI. Fill in for each entry.
# Test system: SR leukemia
# Method: NCI tumour cell line growth inhibition, 48 h

IN: Return the recorded TGI value; entry: COC(=O)NC(Cc1ccccc1)NC(C)=O (stereo not given)
OUT: > 100 µM

IN: Given the compound COc1ccc2c(CCNC(=O)/C=C/c3ccccc3)c(C(C)=O)[nH]c2c1[N+](=O)[O-] , write its reported TGI.
OUT: > 100 µM

IN: Name the recorded TGI of the item COC(=O)c1cccc(OC)c1C#Cc1c(OC)cccc1OC in your answer.
OUT: > 100 µM

IN: Provide TGI value for the following compound: CC1CCCc2c1c1ccc3c(O)cccc3c1oc2=O (stereo not given)
OUT: > 100 µM

IN: Indicate its recorded TGI; the compound in question is CCOC(=O)c1[nH]c2cccc3c2c1CC[C@H](NC(=O)C(F)(F)F)C3=O
OUT: > 100 µM

====

# System: MDA-MB-435
# Method: NCI tumour cell line growth inhibition, 48 h
Task for the reader: assign each of the following compounds its reported TGI.
Your answer should be a plain number; it is taken to be in µM.

IN: Give the reported TGI for this compound. COc1ccc(Cn2cc3c(c2-c2cc(OC)c(OC)c(OC)c2)CCc2cnoc2-3)cc1N
OUT: 0.0384

IN: Let me know recorded TGI for CCCCCN(CCCCC)CC(C)(C)C(O)c1ccc(OC)c2ccccc12 (stereo unspecified) , thanks.
OUT: 29.8

IN: Consider the compound COc1cccc(C2SC(C)C(=O)N2CCc2cccs2)c1 (stereo unspecified) . State its measured TGI.
OUT: 7.28

IN: Indicate its recorded TGI; the compound in question is CCC(=O)/C(=C\I)c1ccccc1
OUT: 10.4

IN: Quick one: give measured TGI for Cc1cnccc1N=Nc1ccc(N(C)C)cc1
OUT: 41.2

IN: Fill in TGI for record COc1ccc2c(c1)CCN1CCCc3ccccc3C21 (stereo unspecified)
OUT: 52.5

IN: Provide TGI value for the following compound: COc1cccc(CCC(=O)c2cc3c(N)c(C(=O)Nc4cccc(Cl)c4C)sc3nc2C)c1
OUT: 0.612

IN: Using the record for O=[N+]([O-])c1cccc(Cl)c1Oc1ccc(S(=O)(=O)/N=C(\NO)Nc2ccc(Cl)cc2)cc1 , state its measured TGI.
OUT: 29.2

IN: Indicate its recorded TGI; the compound in question is CC(=O)OC(C)c1cc2c(s1)C(=O)c1c(C(C)OC(C)=O)csc1C2=O (stereo unspecified)
OUT: 0.34

IN: Answer with reported TGI of COc1cc(C2CC(=O)Nc3c2ccc2ccccc32)cc(Br)c1OC (stereo unspecified)
OUT: 0.464

IN: In one line, give reported TGI of the entry Cc1c2ccccc2c(C)n2c1nc1ccccc12 .
OUT: 19.1

IN: Consider the compound COc1ccc(-c2ccc(-c3ccc(C(=N)N)cn3)o2)cc1Cl and give its recorded TGI.
OUT: 3.33

IN: Check the records and state TGI for O=c1oc2c3ccc4cnccc4c3[nH]c2c2ccccc12
OUT: 34.2

Cited source for all entries: PubChem BioAssay (NCI)
